// %-inhibition, BRK lookup, one value per entry
- ASSAYED SYSTEM: panel of more than 300 wild-type and mutant kinases (313 kinase panel) (Homo sapiens, UniProt Q13882)
- Sequence (Q13882 whole entry, change not shown): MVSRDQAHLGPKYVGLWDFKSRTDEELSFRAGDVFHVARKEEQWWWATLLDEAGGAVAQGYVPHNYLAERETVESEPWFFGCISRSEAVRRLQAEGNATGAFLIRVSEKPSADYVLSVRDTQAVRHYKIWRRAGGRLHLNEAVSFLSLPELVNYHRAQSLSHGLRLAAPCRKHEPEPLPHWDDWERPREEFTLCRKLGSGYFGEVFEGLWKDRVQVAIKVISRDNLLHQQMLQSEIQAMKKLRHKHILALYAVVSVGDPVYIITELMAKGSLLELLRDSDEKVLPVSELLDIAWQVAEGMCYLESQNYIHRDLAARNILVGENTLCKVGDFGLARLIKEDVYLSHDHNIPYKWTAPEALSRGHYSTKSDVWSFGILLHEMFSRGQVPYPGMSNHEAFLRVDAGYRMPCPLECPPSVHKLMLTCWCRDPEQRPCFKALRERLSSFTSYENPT
- PROTOCOL: Kinase profiling in a biochemical assay panel (mobility shift assays and ELISA), %-inhibition at 1 μM; selectivity entropy
- CONDITION LABEL: kinase BRK; 1 μM compound
ATTRIBUTE MEASURED: %-inhibition, BRK (%)

>>> measurement("Cc1ccc(C(=O)Nc2ccc(CN3CCN(C)CC3)c(C(F)(F)F)c2)cc1C#Cc1cnc2cccnn12 [ponatinib]")
97
>>> measurement("CC(=O)Nc1cccc(-n2c(=O)n(C3CC3)c(=O)c3c(Nc4ccc(I)cc4F)n(C)c(=O)c(C)c32)c1 [trametinib]")
-5.53
>>> measurement("Cc1cn(-c2cc(NC(=O)c3ccc(C)c(Nc4nccc(-c5cccnc5)n4)c3)cc(C(F)(F)F)c2)cn1 [nilotinib]")
75
>>> measurement("COc1cc2c(Nc3ccc(Br)cc3F)ncnc2cc1OCC1CCN(C)CC1 [vandetanib]")
100
>>> measurement("C[C@@H](Oc1cc(-c2cnn(C3CCNCC3)c2)cnc1N)c1c(Cl)ccc(F)c1Cl [crizotinib]")
15
>>> measurement("CO[C@H]1C[C@@H]2CC[C@@H](C)[C@@](O)(O2)C(=O)C(=O)N2CCCC[C@H]2C(=O)O[C@H]([C@H](C)C[C@@H]2CC[C@@H](OCCO)[C@H](OC)C2)CC(=O)[C@H](C)/C=C(\\C)[C@@H](O)[C@@H](OC)C(=O)[C@H](C)C[C@H](C)/C=C/C=C/C=C/1C [everolimus]")
-4.32

----------
- ASSAYED SYSTEM: panel of more than 300 wild-type and mutant kinases (313 kinase panel) (Homo sapiens, UniProt Q02779)
- Sequence (Q02779 whole entry, change not shown): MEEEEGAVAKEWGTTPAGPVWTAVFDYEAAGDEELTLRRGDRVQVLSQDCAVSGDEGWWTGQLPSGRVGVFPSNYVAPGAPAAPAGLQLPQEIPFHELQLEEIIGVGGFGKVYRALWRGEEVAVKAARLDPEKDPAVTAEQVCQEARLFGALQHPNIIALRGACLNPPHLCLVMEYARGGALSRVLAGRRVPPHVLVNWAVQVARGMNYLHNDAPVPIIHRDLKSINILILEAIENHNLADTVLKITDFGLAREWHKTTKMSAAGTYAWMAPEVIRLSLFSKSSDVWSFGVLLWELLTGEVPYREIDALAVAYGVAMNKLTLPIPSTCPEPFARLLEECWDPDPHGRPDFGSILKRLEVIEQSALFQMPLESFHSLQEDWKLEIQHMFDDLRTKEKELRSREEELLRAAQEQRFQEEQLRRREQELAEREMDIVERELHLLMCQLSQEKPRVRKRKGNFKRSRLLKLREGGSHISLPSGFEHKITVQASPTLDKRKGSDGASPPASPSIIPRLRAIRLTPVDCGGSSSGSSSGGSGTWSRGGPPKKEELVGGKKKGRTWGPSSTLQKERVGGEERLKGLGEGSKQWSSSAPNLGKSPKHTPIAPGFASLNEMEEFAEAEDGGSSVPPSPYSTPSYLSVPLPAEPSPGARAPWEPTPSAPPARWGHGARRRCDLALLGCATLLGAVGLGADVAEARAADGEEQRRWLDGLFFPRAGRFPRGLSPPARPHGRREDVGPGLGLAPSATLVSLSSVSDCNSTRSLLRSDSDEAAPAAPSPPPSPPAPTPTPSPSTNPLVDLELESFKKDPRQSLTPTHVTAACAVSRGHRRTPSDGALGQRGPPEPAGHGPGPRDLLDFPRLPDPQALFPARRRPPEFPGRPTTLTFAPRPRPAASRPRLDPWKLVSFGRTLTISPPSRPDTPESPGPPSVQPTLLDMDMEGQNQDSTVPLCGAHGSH
- PROTOCOL: Kinase profiling in a biochemical assay panel (mobility shift assays and ELISA), %-inhibition at 1 μM; selectivity entropy
- CONDITION LABEL: kinase MLK2; 1 μM
# label = satisfied if %-inhibition of MLK2 >= 10% else not satisfied

>>> assigned_label("CS(=O)(=O)CCNCc1ccc(-c2ccc3ncnc(Nc4ccc(OCc5cccc(F)c5)c(Cl)c4)c3c2)o1")
"not satisfied"
>>> assigned_label("COc1cc2nccc(Oc3ccc(NC(=O)C4(C(=O)Nc5ccc(F)cc5)CC4)cc3)c2cc1OC [cabozantinib]")
"not satisfied"
>>> assigned_label("Cc1cn(-c2cc(NC(=O)c3ccc(C)c(Nc4nccc(-c5cccnc5)n4)c3)cc(C(F)(F)F)c2)cn1")
"not satisfied"
>>> assigned_label("Cc1ccc(C(=O)Nc2ccc(CN3CCN(C)CC3)c(C(F)(F)F)c2)cc1C#Cc1cnc2cccnn12")
"satisfied"
>>> assigned_label("N#CC[C@H](C1CCCC1)n1cc(-c2ncnc3[nH]ccc23)cn1")
"satisfied"
>>> assigned_label("CNC(=O)c1cc(Oc2ccc(NC(=O)Nc3ccc(Cl)c(C(F)(F)F)c3)c(F)c2)ccn1")
"not satisfied"
>>> assigned_label("C[C@@H](Oc1cc(-c2cnn(C3CCNCC3)c2)cnc1N)c1c(Cl)ccc(F)c1Cl")
"not satisfied"
>>> assigned_label("CCCS(=O)(=O)Nc1ccc(F)c(C(=O)c2c[nH]c3ncc(-c4ccc(Cl)cc4)cc23)c1F")
"not satisfied"
>>> assigned_label("CC(=O)Nc1cccc(-n2c(=O)n(C3CC3)c(=O)c3c(Nc4ccc(I)cc4F)n(C)c(=O)c(C)c32)c1")
"not satisfied"
>>> assigned_label("Cc1ccc(Nc2nccc(N(C)c3ccc4c(C)n(C)nc4c3)n2)cc1S(N)(=O)=O")
"satisfied"
>>> assigned_label("COc1cc(Nc2c(C#N)cnc3cc(OCCCN4CCN(C)CC4)c(OC)cc23)c(Cl)cc1Cl")
"satisfied"
>>> assigned_label("CO[C@H]1C[C@@H]2CC[C@@H](C)[C@@](O)(O2)C(=O)C(=O)N2CCCC[C@H]2C(=O)O[C@H]([C@H](C)C[C@@H]2CC[C@@H](OCCO)[C@H](OC)C2)CC(=O)[C@H](C)/C=C(\\C)[C@@H](O)[C@@H](OC)C(=O)[C@H](C)C[C@H](C)/C=C/C=C/C=C/1C")
"not satisfied"
>>> assigned_label("CC(C)(C)c1nc(-c2cccc(NS(=O)(=O)c3c(F)cccc3F)c2F)c(-c2ccnc(N)n2)s1")
"satisfied"
>>> assigned_label("CO[C@H]1C[C@@H]2CC[C@@H](C)[C@@](O)(O2)C(=O)C(=O)N2CCCC[C@H]2C(=O)O[C@H]([C@H](C)C[C@@H]2CC[C@@H](OC(=O)C(C)(CO)CO)[C@H](OC)C2)CC(=O)[C@H](C)/C=C(\\C)[C@@H](O)[C@@H](OC)C(=O)[C@H](C)C[C@H](C)/C=C/C=C/C=C/1C")
"not satisfied"
>>> assigned_label("COc1cc2c(Nc3ccc(Br)cc3F)ncnc2cc1OCC1CCN(C)CC1")
"satisfied"
>>> assigned_label("O=S(=O)(c1cccc2cnccc12)N1CCCNCC1")
"not satisfied"

----------
- ASSAYED SYSTEM: panel of more than 300 wild-type and mutant kinases (313 kinase panel) (Homo sapiens)
- PROTOCOL: Kinase profiling in a biochemical assay panel (mobility shift assays and ELISA), %-inhibition at 1 μM; selectivity entropy
- CONDITION LABEL: kinase CK1α; 1 μM compound
ATTRIBUTE MEASURED: %-inhibition, CK1α (%)

>>> measurement("N#CC[C@H](C1CCCC1)n1cc(-c2ncnc3[nH]ccc23)cn1")
1.86
>>> measurement("CO[C@H]1C[C@@H]2CC[C@@H](C)[C@@](O)(O2)C(=O)C(=O)N2CCCC[C@H]2C(=O)O[C@H]([C@H](C)C[C@@H]2CC[C@@H](OC(=O)C(C)(CO)CO)[C@H](OC)C2)CC(=O)[C@H](C)/C=C(\\C)[C@@H](O)[C@@H](OC)C(=O)[C@H](C)C[C@H](C)/C=C/C=C/C=C/1C")
-14
>>> measurement("CC(=O)Nc1cccc(-n2c(=O)n(C3CC3)c(=O)c3c(Nc4ccc(I)cc4F)n(C)c(=O)c(C)c32)c1")
3
>>> measurement("CO[C@H]1C[C@@H]2CC[C@@H](C)[C@@](O)(O2)C(=O)C(=O)N2CCCC[C@H]2C(=O)O[C@H]([C@H](C)C[C@@H]2CC[C@@H](OCCO)[C@H](OC)C2)CC(=O)[C@H](C)/C=C(\\C)[C@@H](O)[C@@H](OC)C(=O)[C@H](C)C[C@H](C)/C=C/C=C/C=C/1C")
-11
>>> measurement("CNC(=O)c1cc(Oc2ccc(NC(=O)Nc3ccc(Cl)c(C(F)(F)F)c3)c(F)c2)ccn1")
-7.56
>>> measurement("CCCS(=O)(=O)Nc1ccc(F)c(C(=O)c2c[nH]c3ncc(-c4ccc(Cl)cc4)cc23)c1F")
-4.34

----------
- ASSAYED SYSTEM: panel of more than 300 wild-type and mutant kinases (313 kinase panel) (Homo sapiens)
- PROTOCOL: Kinase profiling in a biochemical assay panel (mobility shift assays and ELISA), %-inhibition at 1 μM; selectivity entropy
- CONDITION LABEL: kinase BRSK2; 1 μM compound
// reported %-inhibition, BRSK2 per item
ATTRIBUTE MEASURED: %-inhibition, BRSK2 (%)

>>> measurement("COc1cc2c(Nc3ccc(Br)cc3F)ncnc2cc1OCC1CCN(C)CC1 [vandetanib]")
-10
>>> measurement("CC(C)(C)c1nc(-c2cccc(NS(=O)(=O)c3c(F)cccc3F)c2F)c(-c2ccnc(N)n2)s1 [dabrafenib]")
30
>>> measurement("CO[C@H]1C[C@@H]2CC[C@@H](C)[C@@](O)(O2)C(=O)C(=O)N2CCCC[C@H]2C(=O)O[C@H]([C@H](C)C[C@@H]2CC[C@@H](OCCO)[C@H](OC)C2)CC(=O)[C@H](C)/C=C(\\C)[C@@H](O)[C@@H](OC)C(=O)[C@H](C)C[C@H](C)/C=C/C=C/C=C/1C [everolimus]")
-0.919
>>> measurement("Cc1ccc(Nc2nccc(N(C)c3ccc4c(C)n(C)nc4c3)n2)cc1S(N)(=O)=O [pazopanib]")
-2.18
>>> measurement("CNC(=O)c1cc(Oc2ccc(NC(=O)Nc3ccc(Cl)c(C(F)(F)F)c3)c(F)c2)ccn1 [regorafenib]")
-15
>>> measurement("CCCS(=O)(=O)Nc1ccc(F)c(C(=O)c2c[nH]c3ncc(-c4ccc(Cl)cc4)cc23)c1F [vemurafenib]")
-6

----------
- ASSAYED SYSTEM: panel of more than 300 wild-type and mutant kinases (313 kinase panel) (Homo sapiens, UniProt P54764)
- Sequence (P54764 20-986, change not shown): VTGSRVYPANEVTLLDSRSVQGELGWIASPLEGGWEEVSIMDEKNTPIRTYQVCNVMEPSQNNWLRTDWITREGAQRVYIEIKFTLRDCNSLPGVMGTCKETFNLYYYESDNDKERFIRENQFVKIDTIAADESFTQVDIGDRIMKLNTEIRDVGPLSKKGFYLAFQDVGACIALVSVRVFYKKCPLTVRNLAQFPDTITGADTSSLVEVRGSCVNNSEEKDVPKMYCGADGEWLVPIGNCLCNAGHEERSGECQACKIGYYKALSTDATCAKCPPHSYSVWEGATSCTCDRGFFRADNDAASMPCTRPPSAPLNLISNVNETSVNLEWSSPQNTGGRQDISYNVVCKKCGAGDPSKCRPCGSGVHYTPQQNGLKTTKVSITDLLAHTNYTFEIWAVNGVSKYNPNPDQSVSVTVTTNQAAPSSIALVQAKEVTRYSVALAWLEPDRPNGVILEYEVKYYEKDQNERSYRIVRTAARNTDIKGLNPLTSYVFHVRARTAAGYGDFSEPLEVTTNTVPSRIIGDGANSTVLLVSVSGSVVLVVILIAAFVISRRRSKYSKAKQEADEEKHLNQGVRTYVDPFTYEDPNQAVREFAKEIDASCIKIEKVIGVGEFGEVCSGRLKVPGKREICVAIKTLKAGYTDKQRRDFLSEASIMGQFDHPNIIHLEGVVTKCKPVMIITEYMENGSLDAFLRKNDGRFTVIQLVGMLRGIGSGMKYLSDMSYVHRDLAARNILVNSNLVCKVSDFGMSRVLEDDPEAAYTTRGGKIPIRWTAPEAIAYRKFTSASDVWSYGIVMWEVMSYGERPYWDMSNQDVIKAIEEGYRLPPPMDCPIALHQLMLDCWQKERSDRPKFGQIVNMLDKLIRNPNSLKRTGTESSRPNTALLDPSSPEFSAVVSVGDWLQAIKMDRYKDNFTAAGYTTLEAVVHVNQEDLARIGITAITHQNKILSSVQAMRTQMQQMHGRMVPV
- PROTOCOL: Kinase profiling in a biochemical assay panel (mobility shift assays and ELISA), %-inhibition at 1 μM; selectivity entropy
- CONDITION LABEL: kinase EPHA4; compound at 1 μM
ATTRIBUTE MEASURED: %-inhibition of EPHA4 (%)

>>> measurement("CO[C@H]1C[C@@H]2CC[C@@H](C)[C@@](O)(O2)C(=O)C(=O)N2CCCC[C@H]2C(=O)O[C@H]([C@H](C)C[C@@H]2CC[C@@H](OC(=O)C(C)(CO)CO)[C@H](OC)C2)CC(=O)[C@H](C)/C=C(\\C)[C@@H](O)[C@@H](OC)C(=O)[C@H](C)C[C@H](C)/C=C/C=C/C=C/1C [temsirolimus]")
-4.51
>>> measurement("C[C@@H](Oc1cc(-c2cnn(C3CCNCC3)c2)cnc1N)c1c(Cl)ccc(F)c1Cl [crizotinib]")
58
>>> measurement("CC(=O)Nc1cccc(-n2c(=O)n(C3CC3)c(=O)c3c(Nc4ccc(I)cc4F)n(C)c(=O)c(C)c32)c1 [trametinib]")
-5.3
>>> measurement("COc1cc2nccc(Oc3ccc(NC(=O)C4(C(=O)Nc5ccc(F)cc5)CC4)cc3)c2cc1OC [cabozantinib]")
97
>>> measurement("CO[C@H]1C[C@@H]2CC[C@@H](C)[C@@](O)(O2)C(=O)C(=O)N2CCCC[C@H]2C(=O)O[C@H]([C@H](C)C[C@@H]2CC[C@@H](OCCO)[C@H](OC)C2)CC(=O)[C@H](C)/C=C(\\C)[C@@H](O)[C@@H](OC)C(=O)[C@H](C)C[C@H](C)/C=C/C=C/C=C/1C [everolimus]")
-2.61
>>> measurement("O=S(=O)(c1cccc2cnccc12)N1CCCNCC1 [fasudil]")
-6
